# test.target: CB1R (hCB1R) (Homo sapiens, UniProt P21554)
# Construct: gene CNR1; expressed in HEK-293T cells; membrane fractions
# Sequence (P21554 whole entry): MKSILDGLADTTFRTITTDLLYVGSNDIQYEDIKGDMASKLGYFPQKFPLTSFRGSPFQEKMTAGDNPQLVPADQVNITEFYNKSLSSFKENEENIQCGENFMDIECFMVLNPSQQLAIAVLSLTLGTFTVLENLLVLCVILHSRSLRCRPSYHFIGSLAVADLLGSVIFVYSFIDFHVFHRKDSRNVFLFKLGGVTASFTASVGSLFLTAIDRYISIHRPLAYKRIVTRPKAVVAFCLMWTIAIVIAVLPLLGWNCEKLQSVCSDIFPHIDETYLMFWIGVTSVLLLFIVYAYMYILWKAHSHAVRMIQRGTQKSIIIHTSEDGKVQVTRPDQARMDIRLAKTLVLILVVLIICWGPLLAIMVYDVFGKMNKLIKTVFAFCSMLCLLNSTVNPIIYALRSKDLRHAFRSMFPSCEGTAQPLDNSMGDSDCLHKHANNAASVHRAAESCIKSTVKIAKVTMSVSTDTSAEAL
# test.description: biochemical
# Type: HEK-293T membranes
# Set-up: [3H]CP-55,940 competition radioligand binding, membrane filtration, scintillation counting
property.name: Ki

>>> print(df.to_string())
                                 smiles_str  property_name  test_value
0  CCCCCCCCCCCCCCCCOc1cc(C(C)(C)CCCCCC)cc2c1-c1c(cnn1CC)C(C)(C)O2             Ki     > 40 µM
1  CCCCCCCCOc1cc(C(C)(C)CCCCCC)cc2c1-c1c(cnn1CC)C(C)(C)O2             Ki     > 40 µM
2  CCCCCCCCCCCCOc1cc(C(C)(C)CCCCCC)cc2c1-c1nn(CC)cc1C(C)(C)O2             Ki     > 40 µM
3  CCCCCCCCCCCCOc1cc(C(C)(C)CCCCCC)cc2c1-c1c(cnn1CC)C(C)(C)O2             Ki     > 40 µM
4  CCCCCCOc1cc(C(C)(C)CCCCCC)cc2c1-c1c(cnn1CC)C(C)(C)O2             Ki     > 40 µM
5  CCCCCCOc1cc(C(C)(C)CCCCCC)cc2c1-c1nn(CC)cc1C(C)(C)O2             Ki     > 40 µM
6  CCCCCCCCCCOc1cc(C(C)(C)CCCCCC)cc2c1-c1nn(CC)cc1C(C)(C)O2             Ki     > 40 µM
7  CCCCCCCCOc1cc(C(C)(C)CCCCCC)cc2c1-c1nn(CC)cc1C(C)(C)O2             Ki     > 40 µM
8  CCCCCCCCCCOc1cc(C(C)(C)CCCCCC)cc2c1-c1c(cnn1CC)C(C)(C)O2             Ki     > 40 µM
9  CCCCCCCCCCCCCCOc1cc(C(C)(C)CCCCCC)cc2c1-c1c(cnn1CC)C(C)(C)O2             Ki     > 40 µM

====

# test.target: CB1R (hCB1R) (Homo sapiens)
# Construct: gene CNR1; expressed in HEK-293T cells; membrane fractions
# test.description: biochemical
# Format: HEK-293T membranes
# Design: [3H]CP-55,940 competition radioligand binding, membrane filtration, scintillation counting
pKi: −log10 of the molar value.
property.name: pKi

In [3]: df
Out[3]:
                                 smiles_str  test_value
0  CCCCCCCCCCCCCCOc1cc(C(C)(C)CCCCCC)cc2c1-c1nn(CC)cc1C(C)(C)O2      < 4.40
1  CCCCCCCCCCCCCCCCOc1cc(C(C)(C)CCCCCC)cc2c1-c1nn(CC)cc1C(C)(C)O2      < 4.40

====

# EC50 values compiled below
# test.target: CB2R (hCB2R) (Homo sapiens, UniProt P34972)
# Construct: gene CNR2; expressed in HEK-293T cells
# Sequence (P34972 whole entry): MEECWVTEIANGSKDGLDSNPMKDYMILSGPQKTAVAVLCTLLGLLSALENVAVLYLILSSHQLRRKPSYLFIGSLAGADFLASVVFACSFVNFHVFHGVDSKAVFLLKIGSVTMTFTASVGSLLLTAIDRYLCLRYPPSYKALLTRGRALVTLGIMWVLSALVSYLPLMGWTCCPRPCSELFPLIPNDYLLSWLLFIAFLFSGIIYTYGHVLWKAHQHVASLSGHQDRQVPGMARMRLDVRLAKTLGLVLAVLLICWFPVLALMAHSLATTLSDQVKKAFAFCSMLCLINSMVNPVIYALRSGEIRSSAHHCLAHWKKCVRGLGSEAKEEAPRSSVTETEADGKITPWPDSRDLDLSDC
# test.description: inhibition of forskolin-induced cAMP, HEK-293T cells
# Format: cell-based
# condition.description: read-out: Wild type / pEC50 (converted)

compound	unit.label	EC50
CCCCCCC(C)(C)c1cc(OCCCCCCCCCCCCCCOc2cc(C(C)(C)CCCCCC)cc3c2-c2nn(CC)cc2C(C)(C)O3)c2c(c1)OC(C)(C)c1cn(CC)nc1-2 [compound 27]	nM	25.1
CCCCCCC(C)(C)c1cc(OCCCCCCCCCCCCCCOc2cc(C(C)(C)CCCCCC)cc3c2-c2c(cnn2CC)C(C)(C)O3)c2c(c1)OC(C)(C)c1cnn(CC)c1-2 [compound 26]	nM	316
CCCCCCC(C)(C)c1cc(OCCCCCCCCCCCCOc2cc(C(C)(C)CCCCCC)cc3c2-c2nn(CC)cc2C(C)(C)O3)c2c(c1)OC(C)(C)c1cn(CC)nc1-2 [compound 25]	nM	63.1
CCCCCCC(C)(C)c1cc(OCCCCCCCCCCCCOc2cc(C(C)(C)CCCCCC)cc3c2-c2c(cnn2CC)C(C)(C)O3)c2c(c1)OC(C)(C)c1cnn(CC)c1-2 [compound 24]	nM	63.1
CCCCCCC(C)(C)c1cc(OCCCCCCCCCCOc2cc(C(C)(C)CCCCCC)cc3c2-c2c(cnn2CC)C(C)(C)O3)c2c(c1)OC(C)(C)c1cnn(CC)c1-2 [compound 22]	nM	79.4

====

# test.target: CB2R (hCB2R) (Homo sapiens)
# Construct: gene CNR2; expressed in HEK-293T cells
# test.description: [3H]CP-55, […] competition binding, HEK-293T membranes
# condition.description: read-out: CB2R Ki [μM]^[b]
Binary call on Ki with cut-off 0.8 µM: strictly below means 1.0, and equality or higher means 0.0.

>>> df
                                 smiles_str  group_label
0  CCCCCCC(C)(C)c1cc(OCCCCCCCCOc2cc(C(C)(C)CCCCCC)cc3c2-c2c(cnn2CC)C(C)(C)O3)c2c(c1)OC(C)(C)c1cnn(CC)c1-2          0.0
1  CCCCCCC(C)(C)c1cc(OCCCCCCCCCCCCOc2cc(C(C)(C)CCCCCC)cc3c2-c2c(cnn2CC)C(C)(C)O3)c2c(c1)OC(C)(C)c1cnn(CC)c1-2          1.0
2  CCCCCCC(C)(C)c1cc(OCCCCCCCCCCOc2cc(C(C)(C)CCCCCC)cc3c2-c2nn(CC)cc2C(C)(C)O3)c2c(c1)OC(C)(C)c1cn(CC)nc1-2          0.0
3  CCCCCCC(C)(C)c1cc(OCCCCCCOc2cc(C(C)(C)CCCCCC)cc3c2-c2nn(CC)cc2C(C)(C)O3)c2c(c1)OC(C)(C)c1cn(CC)nc1-2          0.0
4  CCCCCCC(C)(C)c1cc(OCCCCCCCCCCOc2cc(C(C)(C)CCCCCC)cc3c2-c2c(cnn2CC)C(C)(C)O3)c2c(c1)OC(C)(C)c1cnn(CC)c1-2          0.0
5  CCCCCCC(C)(C)c1cc(OCCCCCCCCCCCCCCOc2cc(C(C)(C)CCCCCC)cc3c2-c2nn(CC)cc2C(C)(C)O3)c2c(c1)OC(C)(C)c1cn(CC)nc1-2          1.0
6  CCCCCCC(C)(C)c1cc(OCCCCCCCCCCCCOc2cc(C(C)(C)CCCCCC)cc3c2-c2nn(CC)cc2C(C)(C)O3)c2c(c1)OC(C)(C)c1cn(CC)nc1-2          1.0
7  CCCCCCC(C)(C)c1cc(OCCCCCCCCCCCCCCCCOc2cc(C(C)(C)CCCCCC)cc3c2-c2nn(CC)cc2C(C)(C)O3)c2c(c1)OC(C)(C)c1cn(CC)nc1-2          0.0
8  CCCCCCC(C)(C)c1cc(OCCCCCCOc2cc(C(C)(C)CCCCCC)cc3c2-c2c(cnn2CC)C(C)(C)O3)c2c(c1)OC(C)(C)c1cnn(CC)c1-2          0.0

====

# Ki values compiled below
# test.target: CB1R (hCB1R) (Homo sapiens, UniProt P21554)
# Construct: gene CNR1; expressed in HEK-293T cells; membrane fractions
# test.description: [3H]CP-55, […] competition binding, HEK-293T membranes
# condition.description: read-out: CB1R Ki [μM]^[b]
property.name: Ki

In [3]: df
Out[3]:
                                 smiles_str  test_value
0  CCCCCCC(C)(C)c1cc(OCCCCCCCCCCCCCCCCOc2cc(C(C)(C)CCCCCC)cc3c2-c2nn(CC)cc2C(C)(C)O3)c2c(c1)OC(C)(C)c1cn(CC)nc1-2     > 40 µM
1  CCCCCCC(C)(C)c1cc(OCCCCCCOc2cc(C(C)(C)CCCCCC)cc3c2-c2c(cnn2CC)C(C)(C)O3)c2c(c1)OC(C)(C)c1cnn(CC)c1-2     > 40 µM
2  CCCCCCC(C)(C)c1cc(OCCCCCCCCCCCCOc2cc(C(C)(C)CCCCCC)cc3c2-c2nn(CC)cc2C(C)(C)O3)c2c(c1)OC(C)(C)c1cn(CC)nc1-2     > 40 µM
3  CCCCCCC(C)(C)c1cc(OCCCCCCCCCCCCCCOc2cc(C(C)(C)CCCCCC)cc3c2-c2c(cnn2CC)C(C)(C)O3)c2c(c1)OC(C)(C)c1cnn(CC)c1-2     > 40 µM
4  CCCCCCC(C)(C)c1cc(OCCCCCCCCCCCCOc2cc(C(C)(C)CCCCCC)cc3c2-c2c(cnn2CC)C(C)(C)O3)c2c(c1)OC(C)(C)c1cnn(CC)c1-2     > 40 µM
5  CCCCCCC(C)(C)c1cc(OCCCCCCCCCCCCCCCCOc2cc(C(C)(C)CCCCCC)cc3c2-c2c(cnn2CC)C(C)(C)O3)c2c(c1)OC(C)(C)c1cnn(CC)c1-2     > 40 µM
